- target.or.test.system: T1, CAPRIN-1 protein expressed on the membrane surface of human cancer cells (human, UniProt Q14444 2-709)
- T1 sequence (looked up): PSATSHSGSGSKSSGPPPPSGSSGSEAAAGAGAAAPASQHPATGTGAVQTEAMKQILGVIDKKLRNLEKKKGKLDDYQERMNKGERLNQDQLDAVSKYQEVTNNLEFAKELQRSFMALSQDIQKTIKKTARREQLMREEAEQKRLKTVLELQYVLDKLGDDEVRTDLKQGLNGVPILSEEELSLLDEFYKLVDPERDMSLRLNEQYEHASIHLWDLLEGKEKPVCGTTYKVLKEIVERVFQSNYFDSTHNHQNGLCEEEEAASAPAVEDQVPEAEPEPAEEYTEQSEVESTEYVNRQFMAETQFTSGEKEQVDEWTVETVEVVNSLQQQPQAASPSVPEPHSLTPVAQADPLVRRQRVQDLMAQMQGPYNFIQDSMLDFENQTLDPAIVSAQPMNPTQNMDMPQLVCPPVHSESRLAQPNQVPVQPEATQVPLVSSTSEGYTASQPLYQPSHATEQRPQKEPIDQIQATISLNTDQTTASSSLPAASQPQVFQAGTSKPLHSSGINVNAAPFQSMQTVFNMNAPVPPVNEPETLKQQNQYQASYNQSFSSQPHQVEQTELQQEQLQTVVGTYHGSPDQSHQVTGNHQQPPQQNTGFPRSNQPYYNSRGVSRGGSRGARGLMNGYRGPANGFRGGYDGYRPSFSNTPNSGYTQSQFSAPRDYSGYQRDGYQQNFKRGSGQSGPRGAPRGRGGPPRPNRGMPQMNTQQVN
- assay.procedure: cell-based or functional assay
ADCC cytotoxic activity (51Cr release) on G-361 values, listed per item

{"binder": "humanized antibody #7 (antibody, V domains shown) VH: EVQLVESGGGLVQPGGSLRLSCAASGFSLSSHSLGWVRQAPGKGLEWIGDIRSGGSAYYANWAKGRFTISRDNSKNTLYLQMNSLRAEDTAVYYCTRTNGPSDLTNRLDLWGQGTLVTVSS VL: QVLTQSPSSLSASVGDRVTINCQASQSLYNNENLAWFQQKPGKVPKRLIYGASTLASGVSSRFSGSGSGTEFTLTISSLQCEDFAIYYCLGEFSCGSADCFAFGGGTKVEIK", "result": "≥ 25%"}
{"binder": "humanized antibody #0 (antibody, V domains shown) VH: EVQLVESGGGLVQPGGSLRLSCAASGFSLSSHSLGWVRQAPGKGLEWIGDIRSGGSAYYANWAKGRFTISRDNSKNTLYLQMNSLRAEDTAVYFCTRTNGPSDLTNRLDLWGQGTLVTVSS VL: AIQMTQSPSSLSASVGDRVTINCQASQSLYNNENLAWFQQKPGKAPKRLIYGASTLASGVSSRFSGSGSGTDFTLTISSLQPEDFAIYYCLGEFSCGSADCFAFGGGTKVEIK", "result": "≥ 15%"}
{"binder": "humanized antibody #9 (antibody, V domains shown) VH: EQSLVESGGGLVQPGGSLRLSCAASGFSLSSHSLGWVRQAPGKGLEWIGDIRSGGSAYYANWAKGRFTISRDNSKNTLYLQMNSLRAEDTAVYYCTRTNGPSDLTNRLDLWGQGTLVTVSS VL: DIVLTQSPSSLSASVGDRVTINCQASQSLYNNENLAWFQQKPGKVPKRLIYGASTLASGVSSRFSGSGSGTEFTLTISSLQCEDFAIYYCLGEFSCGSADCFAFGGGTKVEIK", "result": "≥ 15%"}

We now examine a further binder.
What value of ADCC cytotoxic activity (51Cr release) on G-361 has been reported for the following binder? human-rabbit chimeric anti-CAPRIN-1 antibody (antibody, V domains shown) VH: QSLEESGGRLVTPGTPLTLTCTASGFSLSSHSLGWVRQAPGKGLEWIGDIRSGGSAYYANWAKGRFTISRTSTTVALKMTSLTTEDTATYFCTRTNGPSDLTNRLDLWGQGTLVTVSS VL: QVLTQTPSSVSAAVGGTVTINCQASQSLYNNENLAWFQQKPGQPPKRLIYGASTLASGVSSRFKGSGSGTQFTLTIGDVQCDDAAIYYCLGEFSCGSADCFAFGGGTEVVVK
≥ 15%
